Literature compilation of pKi measurements on UniProtKB P29274.
pKi: −log10 of the molar value.
Test Readout: pKi

As a guide, the following entries are already answered.
>  <Smiles Record>
CSCCn1c(=O)c2[nH]c(Cc3c(F)cccc3F)nc2n(Cc2ccco2)c1=O

>  <Test System>
UniProtKB P29274

>  <pKi>
5.91

$$$$
>  <Smiles Record>
N#Cc1c(N)nc(SCc2ccccn2)c(C#N)c1-c1ccco1

>  <Test System>
UniProtKB P29274

>  <pKi>
6.97

$$$$

I = COc1ccc(C(=O)Nc2nc(-c3ccccc3)c(C(=O)c3ccccn3)s2)cc1
II = O=c1c2ncn3nc(-c4ccccc4)cc3c2c(-c2cccnc2)nn1Cc1ccccc1
III = CC(=O)Nc1cc(N2CCN(C)CC2)nc(-n2nc(C)cc2C)n1
With regard to pKi, arrange the entries in ascending order, please. Rank them, then answer with their labels in that order. III, II, I

----------
Literature compilation of Ki measurements on Adenosine receptor A2a (Homo sapiens).
Test Readout: Ki (nM)

>  <Smiles Record>
COc1cccc(Cn2cc3nc(-c4ccc(C)o4)nc(N)c3n2)c1

>  <Ki / nM>
5.26

$$$$

P = COC(=O)Nc1cc(-c2cncc(OC)c2)nc(-n2nc(C)cc2C)n1
Q = Cn1cc2c(nc(NC3CC3)n3nc(-c4ccco4)nc23)n1
Which entry shows the lesser value of Ki here, P or Q ? Your answer should be the label of the entry you select. P
(P: 7.4 nM, Q: 113 nM)

a = CCn1c(=O)c2c(nc(Cc3ccccc3)n2C)n(Cc2ccco2)c1=O
b = CCn1cc2c(nc(NC(=O)C(c3ccccc3)c3ccccc3)n3nc(-c4ccco4)nc23)n1
a or b : whose Ki is greater? Your answer should be the label of the entry you select. b
(b: 131 nM, a: 89.1 nM)

----------
Literature compilation of Ki measurements on Adenosine receptor A2a (Homo sapiens).
Test Readout: Ki (µM)

As a guide, the following entries are already answered.
>  <Compound>
COc1ccc(CCNc2nc(N)c3nc(-c4ccccc4)sc3n2)cc1

>  <Test Readout>
Ki

>  <Recorded Number>
0.403

$$$$
>  <Compound>
CCOc1nc(N)c2ncn([C@@H]3O[C@H](CO)[C@@H](O)[C@H]3O)c2n1

>  <Test Readout>
Ki

>  <Recorded Number>
0.36

$$$$
>  <Compound>
Nc1nc(-n2cncn2)c2nnn(Cc3ccccc3F)c2n1

>  <Test Readout>
Ki

>  <Recorded Number>
0.4

$$$$
>  <Compound>
Cn1c(=O)c2c(cc(/C=C/c3ccccc3)n2C)n(C)c1=O

>  <Test Readout>
Ki

>  <Recorded Number>
0.17

$$$$
>  <Compound>
CCOC(=O)c1cnc(NOC)n2nc(-c3ccco3)nc12

>  <Test Readout>
Ki

>  <Recorded Number>
0.21

$$$$

I = COc1ccc(N(CCCO)C(C)=O)c2sc(NC(=O)c3ccc(F)cc3)nc12
II = CCCCC(CC)CNc1ncc(C(=O)O)c2nc(-c3ccco3)nn12 (stereo not given)
III = CCCn1c(=O)n(C)c(=O)c2[nH]c(-c3ccc(OC(C)(C)C(=O)N4CCN(c5ccccc5)CC4)cc3)cc21
Rank the 3 compounds: largest Ki first, smallest last. Rank them, then answer with their labels in that order. II, III, I
(II: 33.8 µM, III: 0.562 µM, I: 0.029 µM)

P = CCOC(=O)c1cnc(NCc2ccc(-c3ccccc3)cc2)n2nc(-c3ccco3)nc12
Q = Cn1cc2c(nc(NC(=O)Nc3cccnc3)n3nc(-c4ccco4)nc23)n1
Which entry shows the lesser value of Ki here, P or Q ? Your answer should be the label of the entry you select. Q

----------
Literature compilation of Ki measurements on Adenosine receptor A2a (Homo sapiens).
Test Readout: Ki (µM)

>  <Compound>
CCCn1c(=O)c2nc([C@]34CC[C@](C(=O)N5CCC(C(=O)O)CC5)(CC3)CC4)[nH]c2n(CCC)c1=O

>  <Test Readout>
Ki

>  <Recorded Number>
7.82

$$$$

a = O=C1NCC[C@@]12O[C@@H](n1cnc3c(NCc4cccc(I)c4)ncnc31)[C@H](O)[C@@H]2O
b = O=C(Nc1nc(-c2ccccc2)c(-c2ccccn2)s1)c1ccccc1
c = CC(/C=N/Nc1nc(N)c2ncn([C@@H]3O[C@H](CO)[C@@H](O)[C@H]3O)c2n1)Cc1ccc(C(C)C)cc1 (some centres undefined)
d = CCC(=O)Nc1nc(-c2ccccc2)n[nH]1
With regard to Ki, arrange the entries in ascending order, please. Rank them, then answer with their labels in that order. c, b, d, a
(c: 0.0063 µM, b: 0.0836 µM, d: 2.5 µM, a: 29.8 µM)

----------
Literature compilation of pKi measurements on Adenosine receptor A2a (Homo sapiens, UniProt P29274).
Sequence (P29274 whole entry): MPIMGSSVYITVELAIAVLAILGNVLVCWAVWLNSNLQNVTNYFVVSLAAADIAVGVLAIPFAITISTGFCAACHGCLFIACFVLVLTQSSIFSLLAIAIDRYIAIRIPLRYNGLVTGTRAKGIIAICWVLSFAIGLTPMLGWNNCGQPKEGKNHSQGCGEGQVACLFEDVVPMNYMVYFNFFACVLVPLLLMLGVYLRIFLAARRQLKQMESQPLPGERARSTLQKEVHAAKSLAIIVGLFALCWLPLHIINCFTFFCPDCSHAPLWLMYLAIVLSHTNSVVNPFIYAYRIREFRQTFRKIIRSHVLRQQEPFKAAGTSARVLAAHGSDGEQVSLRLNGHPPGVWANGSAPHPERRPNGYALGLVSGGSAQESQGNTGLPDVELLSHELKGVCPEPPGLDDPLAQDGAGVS
pKi: −log10 of the molar value.
Test Readout: pKi

>  <Molecule>
O=C(Nc1ccc(-c2ccncc2)c(-c2cocn2)n1)C1CC1

>  <Test System>
Adenosine receptor A2a (Homo sapiens, UniProt P29274)

>  <Test Readout>
pKi

>  <Recorded Number>
5.86

$$$$
>  <Molecule>
O=C(O)c1cnc(NCC2CCCCC2)n2nc(-c3ccco3)nc12

>  <Test System>
Adenosine receptor A2a (Homo sapiens, UniProt P29274)

>  <Test Readout>
pKi

>  <Recorded Number>
4.47

$$$$
>  <Molecule>
COc1cc(OCC(=O)N2CCc3ccccc3C2)ccc1-c1cc2c([nH]1)c(=O)n(C)c(=O)n2C

>  <Test System>
Adenosine receptor A2a (Homo sapiens, UniProt P29274)

>  <Test Readout>
pKi

>  <Recorded Number>
4.92

$$$$
>  <Molecule>
O=c1[nH]c(=O)c2cc(-c3ccncn3)c(-c3ccco3)nc2[nH]1

>  <Test System>
Adenosine receptor A2a (Homo sapiens, UniProt P29274)

>  <Test Readout>
pKi

>  <Recorded Number>
6.74

$$$$
>  <Molecule>
CN(Cc1ccccc1)c1nc2nn(C)cc2c2nc(-c3ccco3)nn12

>  <Test System>
Adenosine receptor A2a (Homo sapiens, UniProt P29274)

>  <Test Readout>
pKi

>  <Recorded Number>
5.97

$$$$

I = COC[C@@H]1CCC(C)N1c1cc(NC(C)=O)nc(-n2nc(C)cc2C)n1 (stereo not given in full)
II = CCn1c(=O)[nH]c2nc(-c3cnn(Cc4ccccc4)c3)[nH]c2c1=O
Which entry shows the lesser value of pKi here, I or II ? Your answer should be the label of the entry you select. II
(II: 5.42, I: 7.33)

A = Cn1cc2c(nc(NC(=O)COc3ccc(Cl)cc3)n3nc(-c4ccco4)nc23)n1
B = Cn1cc2c(nc(NC3CCC3)n3nc(-c4ccco4)nc23)n1
C = COc1ccc(N)c2c1C(=O)c1ccccc1C2=O
With regard to pKi, arrange the entries in ascending order, please. Rank them, then answer with their labels in that order. C, B, A

----------
Literature compilation of Ki measurements on UniProt:P29274.
Test Readout: Ki (nM)

P = COC[C@H]1C[C@@H](OC)CN1c1cc(NC(C)=O)nc(-n2nc(C)cc2C)n1
Q = CCCOc1cncc2[nH]c3c(=O)n(CCC)c(=O)n(CCC)c3c12
R = O=C(CCN1C(=O)c2ccccc2C1=O)Nc1nc2ccccc2s1
Order field: Ki | Direction: descending (largest first) Rank them, then answer with their labels in that order. R, Q, P

----------
Literature compilation of pKi measurements on UniProtKB P29274.
pKi: −log10 of the molar value.
Test Readout: pKi

As a guide, the following entries are already answered.
>  <Molecule>
CCCn1c(=O)c2[nH]c(-c3ccc(OCC(=O)NCc4ccccc4)cc3)c(Cl)c2n(CCC)c1=O

>  <Test Readout>
pKi

>  <Recorded Number>
7.22

$$$$
>  <Molecule>
Nc1nc(-c2ccccc2)nc2nn(CCc3ccccc3)cc12

>  <Test Readout>
pKi

>  <Recorded Number>
6.00

$$$$
>  <Molecule>
CC(C)(C)C(=O)c1cc2c([nH]c1=O)CC(c1ccccc1)CC2=O (stereo unspecified)

>  <Test Readout>
pKi

>  <Recorded Number>
4.80

$$$$

1 = Nc1ccc(Cl)c2c1C(=O)c1ccccc1C2=O
2 = Cc1ccc(-c2nc(N)c3nn(Cc4cccc(O)c4)cc3n2)o1
Which entry shows the lesser value of pKi here, 1 or 2 ? Your answer should be the label of the entry you select. 1

----------
Literature compilation of Ki measurements on Adenosine receptor A2a (Homo sapiens, UniProt P29274).
Test Readout: Ki (nM)

>  <Smiles Record>
Cn1cc2c(nc(NC(=O)Nc3ccncc3)n3nc(-c4ccco4)nc23)n1

>  <Unit Descriptor>
nM

>  <Recorded Number>
110

$$$$
>  <Smiles Record>
N#Cc1sc(=S)n(CCc2ccccc2)c1/N=C/c1ccc(F)cc1

>  <Unit Descriptor>
nM

>  <Recorded Number>
2.64

$$$$
>  <Smiles Record>
Nc1nc2c(cnn2CCCc2ccc(OCCO)cc2)c2nc(-c3ccco3)nn12

>  <Unit Descriptor>
nM

>  <Recorded Number>
23.9

$$$$
>  <Smiles Record>
Cc1nc(-c2sc(NC(=O)CC(C)C)nc2-c2ccccc2)no1

>  <Unit Descriptor>
nM

>  <Recorded Number>
33

$$$$
>  <Smiles Record>
CCc1nc(-n2nccn2)c2sccc2n1

>  <Unit Descriptor>
nM

>  <Recorded Number>
779

$$$$
>  <Smiles Record>
CCCn1c(=O)c2[nH]c(-c3ccc(OCC(=O)n4ccc(N)n4)cc3)cc2n(CCC)c1=O

>  <Unit Descriptor>
nM

>  <Recorded Number>
26.3

$$$$
>  <Smiles Record>
OC[C@H]1O[C@@H](n2cnc3c(NC4CCCC4)ncnc32)[C@H](O)[C@@H]1O

>  <Unit Descriptor>
nM

>  <Recorded Number>
385

$$$$

I = CN(C)c1nc(-c2cccs2)c2sccc2n1
II = Nc1nc(-c2ccccc2)nc2nn(Cc3ccccc3)cc12
III = CCCn1c(=O)c2[nH]c(-c3cnn(Cc4cc(-c5ccc(C(F)(F)F)cc5)on4)c3)nc2n(CCC)c1=O
With regard to Ki, arrange the entries in ascending order, please. Rank them, then answer with their labels in that order. I, II, III
(I: 55 nM, II: 121 nM, III: 1700 nM)
